All figures here come from patent US11332459B2.

assayed_target: human TRPC6 (Homo sapiens, UniProt Q9Y210)
protocol_summary: TRPC6 calcium flux assay (FLIPR, OAG-stimulated calcium influx)
details: HEK293 cells stably transfected with human TRPC6, read-out: hTRPC6 Potency
experimental_endpoint: IC50

1) N[C@@H]1CN(c2nc3cc(F)c(F)cc3n2CC(=O)N(c2ccccc2)C2C=CS(=O)(=O)C2)CC[C@H]1F (mixture of isomers): 0.186 µM
2) N#Cc1ccc(Cn2c(N3CCC[C@]4(CCCN4)C3)nc3ccccc32)nc1: > 3.75 µM
3) N#Cc1ccc(Cn2c(N3CCC[C@@](N)(C(N)=O)C3)nc3ccccc32)nc1: > 3.75 µM
4) CN(CC(F)(F)F)C(=O)Cn1c(N2CC[C@H](N)C2)nc2ccc(F)cc21: > 3.75 µM
5) N#Cc1ccc(Cn2c(N3C[C@@H]4C[C@]4(CN)C3)nc3ccccc32)cc1: 0.655 µM
6) N#Cc1ccc(Cn2c(N3CC[C@@H](F)[C@H](N)C3)nc3ncccc32)cc1 [Example 417]: 0.0127 µM
7) N#Cc1cc(F)cc2c1nc(N1CC[C@H](F)[C@H](N)C1)n2Cc1ncc(F)cn1: 0.00613 µM
8) N#Cc1ccc2nc(N3CC[C@@H](F)[C@H](N)C3)n(Cc3ccc(F)cn3)c2c1: 0.00402 µM

====

assayed_target: human TRPC6 (Homo sapiens)
Sequence (Q9Y210 1-931): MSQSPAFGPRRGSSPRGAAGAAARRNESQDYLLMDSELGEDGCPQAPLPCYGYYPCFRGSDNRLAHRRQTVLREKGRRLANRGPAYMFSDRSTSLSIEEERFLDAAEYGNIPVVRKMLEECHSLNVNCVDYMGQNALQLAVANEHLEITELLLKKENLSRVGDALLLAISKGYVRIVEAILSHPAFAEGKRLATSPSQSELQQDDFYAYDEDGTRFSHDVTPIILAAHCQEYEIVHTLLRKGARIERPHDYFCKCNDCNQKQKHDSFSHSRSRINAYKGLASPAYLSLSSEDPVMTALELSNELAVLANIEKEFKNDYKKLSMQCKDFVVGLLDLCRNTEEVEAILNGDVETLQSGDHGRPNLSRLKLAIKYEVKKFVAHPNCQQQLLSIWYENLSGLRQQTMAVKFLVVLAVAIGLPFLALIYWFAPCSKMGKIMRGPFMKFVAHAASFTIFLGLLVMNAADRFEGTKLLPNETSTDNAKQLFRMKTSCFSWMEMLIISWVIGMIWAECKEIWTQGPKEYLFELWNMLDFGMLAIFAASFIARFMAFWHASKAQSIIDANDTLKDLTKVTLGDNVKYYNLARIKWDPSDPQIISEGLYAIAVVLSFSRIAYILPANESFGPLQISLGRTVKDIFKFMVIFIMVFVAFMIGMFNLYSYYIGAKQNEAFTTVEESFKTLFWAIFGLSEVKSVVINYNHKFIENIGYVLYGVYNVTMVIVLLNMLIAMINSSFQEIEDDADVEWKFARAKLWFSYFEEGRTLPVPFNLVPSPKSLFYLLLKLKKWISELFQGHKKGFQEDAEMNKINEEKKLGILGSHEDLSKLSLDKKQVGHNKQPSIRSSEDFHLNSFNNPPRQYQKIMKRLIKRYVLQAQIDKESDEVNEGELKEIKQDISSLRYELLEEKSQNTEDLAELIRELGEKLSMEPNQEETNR
protocol_summary: TRPC6 calcium flux assay (FLIPR, OAG-stimulated calcium influx)
details: HEK293 cells stably transfected with human TRPC6, read-out: hTRPC6 Potency
Counter-ions that a name gives are not always drawn.
Reported values of IC50 for individual entries
experimental_endpoint: IC50

1. CC1CCN1C(=O)Cn1c(N2CC[C@@H](F)[C@H](N)C2)nc2cc(F)c(F)cc21 (some centres unmarked): 5.38 nM
2. N#Cc1ccc(Cn2c(N3CC[C@@H](F)[C@H](N)C3)nc3cc(Cl)ccc32)nc1: 1.17 nM
3. C[C@@H](C#N)N(C)C(=O)Cn1c(N2CC[C@@H](F)[C@H](N)C2)nc2cc(F)c(F)cc21: 21.2 nM
4. N[C@@H]1CN(c2nc3ccc(F)cc3n2Cc2nc(C(F)(F)F)no2)CC[C@H]1F: 78.4 nM
5. N[C@@H]1CN(c2nc3ccccc3n2Cc2ccc(Cl)cn2)CC[C@@H]1F [Example 86, hydrochloride]: 1.37 nM
6. N#Cc1ccc(Cn2c(N3CCC(F)(F)[C@H](N)C3)nc3ccccc32)cc1: 3.06 nM
7. Cc1cc2c(cc1Cl)nc(N1CC[C@@H](F)[C@H](N)C1)n2Cc1ccc(C#N)cn1: 0.286 nM
8. N#Cc1ccc2nc(N3CC[C@@H](F)[C@H](N)C3)n(Cc3ncc(F)cn3)c2c1: 6.47 nM

====

assayed_target: human TRPC6 (Homo sapiens, UniProt Q9Y210)
Sequence (Q9Y210 1-931): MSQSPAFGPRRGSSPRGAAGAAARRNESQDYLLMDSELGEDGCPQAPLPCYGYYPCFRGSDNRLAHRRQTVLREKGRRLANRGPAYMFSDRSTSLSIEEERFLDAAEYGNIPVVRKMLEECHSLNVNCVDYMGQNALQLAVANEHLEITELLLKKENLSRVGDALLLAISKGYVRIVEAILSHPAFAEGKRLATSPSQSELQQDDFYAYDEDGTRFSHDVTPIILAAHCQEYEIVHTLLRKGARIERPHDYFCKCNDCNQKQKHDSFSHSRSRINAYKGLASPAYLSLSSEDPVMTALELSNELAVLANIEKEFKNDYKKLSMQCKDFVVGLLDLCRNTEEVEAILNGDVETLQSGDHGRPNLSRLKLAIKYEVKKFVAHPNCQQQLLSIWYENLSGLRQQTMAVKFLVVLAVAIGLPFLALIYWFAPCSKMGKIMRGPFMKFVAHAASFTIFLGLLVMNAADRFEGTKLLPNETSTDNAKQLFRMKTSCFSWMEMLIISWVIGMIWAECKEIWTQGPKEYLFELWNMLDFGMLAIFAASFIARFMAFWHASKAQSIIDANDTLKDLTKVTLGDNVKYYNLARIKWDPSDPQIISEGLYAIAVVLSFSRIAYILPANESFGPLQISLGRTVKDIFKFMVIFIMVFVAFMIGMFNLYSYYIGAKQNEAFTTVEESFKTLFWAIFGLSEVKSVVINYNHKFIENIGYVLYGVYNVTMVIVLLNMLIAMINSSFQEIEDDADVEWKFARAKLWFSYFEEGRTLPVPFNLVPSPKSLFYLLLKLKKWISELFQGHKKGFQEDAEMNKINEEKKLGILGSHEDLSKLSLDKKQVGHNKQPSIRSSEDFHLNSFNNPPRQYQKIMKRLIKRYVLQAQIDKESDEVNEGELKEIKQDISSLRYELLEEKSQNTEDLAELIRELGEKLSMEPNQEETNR
protocol_summary: TRPC6 calcium flux assay (FLIPR, OAG-stimulated calcium influx)
details: HEK293 cells stably transfected with human TRPC6, read-out: hTRPC6 Potency
IC50 values, listed per item
experimental_endpoint: IC50 (nM)

1. CC1(O)CCN(C(=O)Cn2c(N3CC[C@@H](F)[C@H](N)C3)nc3cc(F)c(F)cc32)C1 (some centres unmarked): 3350
2. N#Cc1ccc(Cn2c(N3CC[C@H](F)[C@H](N)C3)nc3ccccc32)cc1: 2.22
3. N[C@@H]1CCCN(c2nc3ccccc3n2Cc2ccc3ccncc3c2)C1: 2920
4. N#Cc1ccc(Cn2c(N3CC[C@@H](F)[C@H](N)C3)nc3c(Cl)cc(Cl)cc32)nc1: 0.469
5. CC1(C)CCCN1C(=O)Cn1c(N2CC[C@@H](F)[C@H](N)C2)nc2cc(F)c(F)cc21: 765
6. Cc1nnc(Cn2c(N3CC[C@@H](F)[C@H](N)C3)nc3cc(F)c(F)cc32)s1: 6.69
7. N#Cc1ccc(Cn2c(N3CC[C@H](F)[C@H](N)C3)nc3cc(F)cc(F)c32)nc1: 237
8. C[C@H](NC(=O)Cn1c(N2CC[C@@H](F)[C@H](N)C2)nc2ccc(F)cc21)c1ccccn1: 687

====

Quick reference for pIC50 among some compounds
assayed_target: human TRPC6 (Homo sapiens)
protocol_summary: TRPC6 calcium flux assay (FLIPR, OAG-stimulated calcium influx)
details: HEK293 cells stably transfected with human TRPC6, read-out: hTRPC6 Potency
pIC50: −log10 of the molar value. Structures can show the parent of a compound that is named as a salt.
experimental_endpoint: pIC50

1) N[C@@H]1CN(c2nc3cc(F)c(F)cc3n2CC(=O)N2CCN(c3cnccn3)CC2)CC[C@H]1F [Example 511]: 6.80
2) N[C@@H]1CN(c2nc3cc(F)c(F)cc3n2Cc2ccccc2C(F)(F)F)CC[C@H]1F [Example 352]: 6.48
3) Cc1cc(Cn2c(N3CC[C@@H](F)[C@H](N)C3)nc3cc(F)c(F)cc32)on1 [Example 579]: 6.51
4) CN[C@H]1CCCN(c2nc3ccc(C(F)(F)F)cc3n2Cc2ccc(C#N)cn2)C1 [Example 139]: 8.72
5) CO[C@H]1CCN(c2nc3ccc(F)cc3n2Cc2ncc(Cl)cn2)C[C@H]1N [Example 467]: 6.91
6) CN(CC(F)(F)F)C(=O)Cn1c(N2CC[C@H](F)[C@H](N)C2)nc2ccc(F)cc21 [Example 462]: 7.53
7) C[C@H](c1ccc(Cl)cn1)n1c(N2CC[C@@H](F)[C@H](N)C2)nc2cc(Cl)ccc21 [Example 219, hydrochloride]: 7.80
8) N#Cc1ccc(Cn2c(N3CC[C@@H](F)[C@H](N)C3)nc3cc(Cl)cnc32)nc1 [Example 92]: 7.36
9) N#Cc1ccc(Cn2c(N3C[C@@H](N)CC(F)(F)C3)nc3ccccc32)nc1 [Example 17]: 6.93
10) N#CC1CN(C(=O)Cn2c(N3CC[C@@H](F)[C@H](N)C3)nc3cc(F)c(F)cc32)C1 [Example 426]: 6.03
11) CN(CC(F)F)C(=O)Cn1c(N2CC[C@@H](F)[C@H](N)C2)nc2cc(F)c(F)cc21 [Example 601]: 8.25
12) N#Cc1ccc(Cn2c(N3CC[C@@H](F)[C@H](N)C3)nc3cc(F)c(F)cc32)cc1Cl [Example 346]: 8.86
13) Cc1cnc(Cn2c(N3CC[C@@H](F)[C@H](N)C3)nc3cc(F)c(F)cc32)s1 [Example 551]: 8.21
14) CN(C)C(=O)Cn1c(N2CC[C@@H](F)[C@H](N)C2)nc2cc(Cl)ccc21 [Example 506]: 7.12
15) C[C@H](c1ncc(Cl)cn1)n1c(N2CC[C@@H](F)[C@H](N)C2)nc2cc(F)c(F)cc21 [Example 498]: 8.73
